Target: CRTH2 (Homo sapiens)
Sequence (Q9Y5Y4 1-395): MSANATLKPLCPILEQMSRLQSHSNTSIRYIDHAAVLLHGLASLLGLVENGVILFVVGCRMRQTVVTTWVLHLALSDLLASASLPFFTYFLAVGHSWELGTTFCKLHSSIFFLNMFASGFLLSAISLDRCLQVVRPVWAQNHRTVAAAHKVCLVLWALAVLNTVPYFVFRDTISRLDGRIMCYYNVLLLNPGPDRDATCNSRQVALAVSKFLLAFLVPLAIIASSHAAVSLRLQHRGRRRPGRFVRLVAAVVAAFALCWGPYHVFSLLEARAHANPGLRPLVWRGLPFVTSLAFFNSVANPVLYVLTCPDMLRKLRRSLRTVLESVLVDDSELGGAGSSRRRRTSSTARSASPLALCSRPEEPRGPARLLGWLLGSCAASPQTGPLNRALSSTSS
Assay: FRET based competitive immunoassay (cAMP) in CRTH2 expressing CHO cells
Conditions: CRTH2 expressing CHO cells incubated with forskolin and PGD2; Eu3+ cryptate-labeled anti-cAMP and d2-labeled cAMP
Could you please mark class 1 for values of IC50 below 100 nM and class 0 for values at or above it?

In [3]: df
Out[3]:
                                   compound  answer_label
0  Cc1c(Cc2ccc(=O)n(Cc3ccc(F)cc3)c2)c2ccccc2n1CC(=O)O       class 1
1  Cc1c(-c2ccc(=O)n(Cc3cccc(F)c3F)c2)c2cc(F)ccc2n1[C@H](C)C(=O)O [Example 306b]       class 0
2  Cc1c(CC2=NN(CC(F)(F)F)C(=O)CC2)c2cc(F)ccc2n1CC(=O)O       class 1
3  Cc1cc(Cn2nc(-c3c(C)n(CC(=O)O)c4ccc(Cl)cc34)ccc2=O)c2ccccc2n1       class 0
4  Cc1c(-c2ccc(=O)n(Cc3ccccc3)n2)c2ccccc2n1CC(=O)O       class 1
5  Cc1c(-c2ccc(=O)n(CCCC(F)(F)F)c2)c2cc(F)ccc2n1CC(=O)NS(C)(=O)=O       class 0
6  Cc1ccc(Cn2nc(-c3c(C)n(CC(=O)O)c4ccc(Cl)cc34)ccc2=O)cc1       class 1

###

Below, each of the compounds is paired with its reported IC50 value.
Molecular target: CRTH2 (Homo sapiens, UniProt Q9Y5Y4)
Assay: FRET based competitive immunoassay (cAMP) in CRTH2 expressing CHO cells
Conditions: CRTH2 expressing CHO cells incubated with forskolin and PGD2; Eu3+ cryptate-labeled anti-cAMP and d2-labeled cAMP
Experimental: FRET Assay: To evaluate potency compounds were tested in a FRET based competitive immunoassay in which CRTH2 expressing CHO cells were incubated in the presence of forskolin and PGD2 along with Eu3+ cryptate-labeled anti-cAMP and d2-labeled cAMP.
Measured parameter: IC50 (nM)

>>> df
                                    compound  measured_parameter  sign  recorded_number
 0  Cc1c(Cc2ccc(=O)n(Cc3ccc(C(F)(F)F)cc3)n2)c2cc(F)ccc2n1CC(=O)O [Example 82]                IC50     =               16
 1  Cc1c(-c2nn(CC3CC3)c(=O)c3ccccc23)c2cc(Cl)ccc2n1CC(=O)O [Example 108]                IC50     =               22
 2  Cc1c(Cc2ccc(=O)n(Cc3cc(F)ccc3F)c2)c2ccccc2n1CC(=O)O [Example 25]                IC50     =                7
 3  Cc1c(-c2nn(Cc3ccccc3)c(=O)c3ccccc23)c2ccccc2n1CC(=O)N(C)C [Example 48]                IC50     >             2000
 4  Cc1c(Cc2ccc(=O)n(CCCC(F)(F)F)n2)c2cc(F)ccc2n1CC(=O)O [Example 344]                IC50     =               17
 5  Cc1c(Cc2ccc(=O)n(Cc3cc(F)c(F)cc3F)c2)c2cc(F)ccc2n1CC(=O)O [Example 23]                IC50     =               17
 6  Cc1c(-c2ccc(=O)n(Cc3cccc(F)c3F)c2)c2cc(Cl)ccc2n1CC(=O)O [Example 292]                IC50     =               11
 7  Cc1c(-c2ccc(=O)n(Cc3cc(F)ccc3F)n2)c2cc(Cl)ccc2n1CC(=O)O [Example 67]                IC50     =               23
 8  Cc1c(-c2ccc(=O)n(Cc3cccc(C(F)(F)F)c3)n2)c2cc(F)ccc2n1CC(=O)O [Example 218]                IC50     =               24
 9  Cc1c(-c2nn(Cc3ccc(OC(F)(F)F)cc3)c(=O)c3ccccc23)c2cc(Cl)ccc2n1CC(=O)O [Example 102]                IC50     =               27
10  Cc1c(CC2=NN(Cc3ccc(F)cc3F)C(=O)CC2)c2cc(F)ccc2n1CC(=O)O [Example 56]                IC50     =                5
11  Cc1c(-c2nn(Cc3ccccc3F)c(=O)c3ccccc23)c2cc(F)ccc2n1CC(=O)O [Example 113]                IC50     =               14
12  Cc1c(Cc2ccc(=O)n(Cc3cccc(F)c3)c2)c2cc(Cl)ccc2n1CC(=O)O [Example 45]                IC50     =                5
13  Cc1c(-c2ccc(=O)n(C3CCCC3)c2)c2ccccc2n1CC(=O)O [Example 288]                IC50     =              117
14  Cc1c(-c2ccc(=O)n(Cc3cc(F)c(F)cc3F)n2)c2ccccc2n1CC(=O)O [Example 187]                IC50     =               75
15  Cc1c(Cc2ccc(=O)n(Cc3ccccc3)n2)c2ccccc2n1CC(=O)O [Example 77]                IC50     =               32
16  Cc1c(-c2ccc(=O)n(Cc3ccccc3)c2)c2cc(F)ccc2n1CC(=O)NS(=O)(=O)c1ccccc1 [Example 312]                IC50     >             1000
17  Cc1c(-c2ccc(=O)n(CCCC(F)(F)F)c2)c2cc(F)ccc2n1CC(=O)O [Example 297]                IC50     =               38
18  Cc1c(-c2ccc(=O)n(Cc3ccncc3)c2)c2cc(F)ccc2n1CC(=O)O [Example 308]                IC50     =               35
19  Cc1c(-c2ccc(=O)n(Cc3cc(F)cc(F)c3)c2)c2cc(Cl)ccc2n1CC(=O)O [Example 294]                IC50     =                2
20  Cc1c(Cc2ccc(=O)n(Cc3ccc(F)cc3)n2)c2ccccc2n1CC(=O)O [Example 76]                IC50     =               16
21  Cc1c(-c2ccc(=O)n(CCC(F)(F)F)n2)c2cc(F)ccc2n1CC(=O)O [Example 164]                IC50     =              409
22  Cc1c(-c2ccc(=O)n(Cc3ccc(F)cc3F)c2)c2cc(F)ccc2n1CC(=O)O [Example 273]                IC50     =               28
23  Cc1c(-c2ccc(=O)n(CC3CC3)n2)c2ccccc2n1CC(=O)O [Example 184]                IC50     =               62
24  Cc1c(-c2ccc(=O)n(Cc3cc(F)c(F)cc3F)n2)c2cc(F)ccc2n1CC(=O)O [Example 70]                IC50     =               16
25  Cc1c(-c2ccc(=O)n(Cc3cccc(F)c3F)c2)c2cc(F)ccc2n1CC#N [Example 310]                IC50     >             1000
26  Cc1c(-c2nn(CC(C)(C)O)c(=O)c3ccccc23)c2cc(F)ccc2n1CC(=O)O [Example 129]                IC50     =              136
27  Cc1c(-c2cn(CCCC(F)(F)F)c(=O)c3c2CCCC3)c2cc(F)ccc2n1CC(=O)O [Example 89]                IC50     =              123
28  Cc1c(-c2nn(Cc3nc4cc(Cl)ccc4s3)c(=O)c3ccccc23)c2cc(Cl)ccc2n1CC(=O)O [Example 209]                IC50     =               14
29  Cc1c(-c2cn(Cc3ccccc3)c(=O)c3c2CCCC3)c2cc(F)ccc2n1CC(=O)O [Example 88]                IC50     =              197
30  CCn1nc(-c2c(C)n(CC(=O)O)c3ccc(Cl)cc23)ccc1=O [Example 150]                IC50     =              559
31  Cc1c(Cc2ccc(=O)n(Cc3cccnc3)n2)c2cc(F)ccc2n1CC(=O)O [Example 195]                IC50     =               12
32  Cc1c(-c2cn(CCC(C)(C)O)c(=O)c3ccccc23)c2cc(F)ccc2n1CC(=O)O [Example 272]                IC50     =               23
